# ASSAY SYSTEM: T1, human BCMA with a His tag (ACROBiosystems, Catalog No.: BCA-H522y) (human)
# T1 construct: Bought His-tagged recombinant protein; also called huBCMA-His; Recombinant human BCMA
# T1 chain: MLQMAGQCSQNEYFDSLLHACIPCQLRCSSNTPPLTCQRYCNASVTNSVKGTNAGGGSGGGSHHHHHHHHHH
# ASSAY OVERVIEW: SPR, Biacore T200
Provide the reported Kd of each item.

| BINDER | READOUT | MEASURED |
| --- | --- | --- |
| SCT-Aa01(m/m) (antibody, V domains shown, Full IgG format: mouse IgG1 heavy chain constant region, mouse kappa light chain constant region) VH: DVQLQESGPGLVKPSQSLSLTCSVTGYSITSGYYWNWIRQFPGNKLEWMGYIRYDGSNNYNPSLKNRISITRDTSKNQFFLKLNSVTTEDTATYYCAPYDYDYAMDFWGQGTSVTVSS VL: DIQMTQSPASLSASVGETVTITCRASGNIHNYLAWYQQKQGKSPQLLVYNAKTLAHGVPSRFSGSGSGTQYSLKITSLQPEDFGTYYCQHFWSTPFTFGSGTKLEIK | Kd | 68.6 nM |
| SCT-Aa19(h/h) (antibody, V domains shown, Full IgG format, chimeric: human IgG1 heavy chain constant region, human kappa light chain constant region) VH: QVQLQQSGPELVKPGASVRISCKASGCTFTDYYIHWVKQRPGQGLEWIGWIYPGNLNSKFNEKFRDKATLTADNSSSTAYMQLSSLTSEDSAVYFCARYNYEGYFDYWGQGTTLTVSS VL: DIVMTQSPATLSVTPGDRVSLSCRASQSIADSLHWYQQKSHESPRLLIKYASHSISGIPSRFRGSGSGSDFTLSINSVEPEDVGVYYCQNGHSFPLTFGAGTKLELK | Kd | 1.19 nM |

Could you now look at the following binder, please?
Challenge: Give its Kd value. Item: SCT-Aa14(m/m) (antibody, V domains shown, Full IgG format: mouse IgG1 heavy chain constant region, mouse kappa light chain constant region) VH: QVQLQQSDAELVKPGASVKISCKVSSYTFTDHTIHWMKQRPEQGLEWIGYIFPRDGSTKYNEKFKGKATLTADKSSSTAYMQLNSLTSEDSAVYFCARWDYEGFDYWGQGTTLTVSS VL: DIVMTQSPATLSVTPGDRVSLSCRASQNISDYLHWYQQKSHESPRLLIKYASQSISGIPSRFSGSGSGSDFTLSINSVEPEDVGVYYCQNGHSFPPTFGSGTKLEIK
Response given: 20.4 nM
